test system: human EDTA-anti-coagulated blood diluted 1∶10; test: TNF release assay in stimulated diluted whole blood (ELISA); type: cell-based; details: E. coli-stimulated blood, 4 h, N = 2
Bridge positions count the residues as written; N and C are the ends. Peptide text beside a SMILES is read from it.

Molecule	Experimental Target	hierarchy of anti-TNF potencies
CC[C@H](C)[C@@H]1NC(=O)CNC(=O)[C@H](CC(C)C)NC(=O)[C@H](C(C)C)NC(=O)[C@@H]2CSSC[C@H](NC1=O)C(=O)N[C@@H](CCCNC(=N)N)C(=O)N[C@H]1CSSC[C@H](NC(=O)[C@H](CCCNC(=N)N)NC(=O)[C@@H]3CSSC[C@H](NC(=O)[C@H]([C@@H](C)CC)NC1=O)C(=O)N[C@@H](CCCNC(=N)N)C(=O)N[C@@H](CCCNC(=N)N)C(=O)NCC(=O)N[C@@H](C(C)C)C(=O)N3)C(=O)N[C@@H]([C@@H](C)CC)C(=O)N2 [RTD-5] (cyclo(CICRRGVCRCICVLGICR); disulfide 1-10, 3-8, 12-17)	human EDTA-anti-coagulated blood diluted 1∶10	RTD-5>2>1>4>3
CC[C@H](C)[C@@H]1NC(=O)CNC(=O)[C@H](CC(C)C)NC(=O)[C@H](C(C)C)NC(=O)[C@@H]2CSSC[C@H](NC1=O)C(=O)N[C@@H](CCCNC(=N)N)C(=O)N[C@H]1CSSC[C@H](NC(=O)[C@H](CCCNC(=N)N)NC(=O)[C@@H]3CSSC[C@H](NC(=O)[C@H]([C@@H](C)CC)NC1=O)C(=O)N[C@@H]([C@@H](C)O)C(=O)N[C@@H](CCCNC(=N)N)C(=O)NCC(=O)N[C@@H](Cc1ccccc1)C(=O)N3)C(=O)N[C@@H]([C@@H](C)CC)C(=O)N2 [RTD-4] (cyclo(CICTRGFCRCICVLGICR); disulfide 1-10, 3-8, 12-17)	human EDTA-anti-coagulated blood diluted 1∶10	RTD-5>2>1>4>3

* * *

assay: in vitro; settings: human, EDTA plasma
Bridge positions count the residues as written; N and C are the ends. Peptide text beside a SMILES is read from it.
Measured Property: remaining at 72 h, 50 µg/ml (%)

Compound	Unit Label	Readout Number
CC[C@H](C)[C@@H]1NC(=O)[C@@H]2CSSC[C@H](NC(=O)[C@H](CCCNC(=N)N)NC(=O)[C@@H]3CSSC[C@H](NC1=O)C(=O)N[C@@H]([C@@H](C)O)C(=O)N[C@@H](CCCNC(=N)N)C(=O)NCC(=O)N[C@@H](Cc1ccccc1)C(=O)N3)C(=O)N[C@@H](CC(C)C)C(=O)N[C@H]1CSSC[C@H](NC(=O)[C@H](C(C)C)NC(=O)CNC(=O)[C@H](CCCNC(=N)N)NC(=O)[C@H](CCCNC(=N)N)NC1=O)C(=O)N[C@@H](CCCNC(=N)N)C(=O)N2 [RTD-1] (cyclo(GFCRCLCRRGVCRCICTR); disulfide 3-16, 5-14, 7-12)	%	93
